Biological target: Calcium and integrin-binding protein 1 (Homo sapiens) (UniProt Q99828)
Sequence (Q99828 whole entry, looked up): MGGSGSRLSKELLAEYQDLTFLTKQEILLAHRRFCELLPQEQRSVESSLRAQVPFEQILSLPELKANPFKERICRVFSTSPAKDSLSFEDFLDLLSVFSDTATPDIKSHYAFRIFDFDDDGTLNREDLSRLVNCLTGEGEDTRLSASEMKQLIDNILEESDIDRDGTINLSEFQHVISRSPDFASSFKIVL
Assay: Primary qHTS for Identification of Calcium Integrin Binding Protein 1 (CIB1) Competitor (AID 1508620);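 further: GST tagged CIB1 binding a fluorescein labelled alphaIIb integrin peptide tracer; top concentration of the series differs between compounds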
Settings: CIB1-GST / FITC-alphaIIb peptide fluorescence polarization; series mostly up to 114 µM
Results filed as inconclusive are left out. The source made the active and inactive calls. The call rests on the fitted dose curve; in most records, active means well fitted inhibition curve with a large enough effect; inconclusive means small, poorly fitted or top-dose-only effect; inactive means flat fitted curve, though single readings scatter.
OBSERVED PROPERTY: outcome

Consider the following illustrative entries.
{"COMPOUND": "Cc1cc2c(s1)c1cnn(Cc3c(Cl)ccc(C)c3F)c(=O)c1n2C", "REPORTED RESULT": "inactive"}
{"COMPOUND": "CC(C)c1ccccc1-c1nc2c(c(NCc3ccc(-c4cccnc4)cc3)n1)CNC2", "REPORTED RESULT": "inactive"}
{"COMPOUND": "O=C1CCCC2=C1C(c1[nH]ncc1Cl)N=C(Nc1nc3c(Cl)cccc3o1)N2 (stereo not given)", "REPORTED RESULT": "inactive"}
{"COMPOUND": "NC(=O)C1CCN(c2nc(-c3ccc4c(c3)OCCO4)cs2)CC1", "REPORTED RESULT": "inactive"}
{"COMPOUND": "O=C(Nc1cccnc1)c1ccco1", "REPORTED RESULT": "inactive"}

Please turn your attention to the following entry.
So the reported outcome for "Cc1cc2c(s1)c1cnn(Cc3ccc(Cl)c(F)c3)c(=O)c1n2C" , on Calcium and integrin-binding protein 1 (Homo sapiens) (UniProt Q99828), turned out to be inactive

###

Molecular target: Dual specificity protein kinase CLK4 (Homo sapiens) (UniProt Q9HAZ1)
Sequence (Q9HAZ1 whole entry, looked up): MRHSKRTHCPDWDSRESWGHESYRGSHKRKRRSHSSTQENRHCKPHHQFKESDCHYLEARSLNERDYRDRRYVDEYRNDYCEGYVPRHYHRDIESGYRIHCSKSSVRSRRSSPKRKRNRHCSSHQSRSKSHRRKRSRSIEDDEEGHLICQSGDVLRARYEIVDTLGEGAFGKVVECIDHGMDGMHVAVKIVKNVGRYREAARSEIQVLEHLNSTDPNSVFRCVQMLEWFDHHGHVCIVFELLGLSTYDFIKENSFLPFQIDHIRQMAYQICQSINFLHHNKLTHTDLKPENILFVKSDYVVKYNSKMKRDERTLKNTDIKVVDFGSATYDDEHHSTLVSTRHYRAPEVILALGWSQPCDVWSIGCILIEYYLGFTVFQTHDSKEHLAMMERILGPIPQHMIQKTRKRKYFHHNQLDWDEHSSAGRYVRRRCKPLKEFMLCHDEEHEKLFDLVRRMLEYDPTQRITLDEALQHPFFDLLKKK
Assay: qHTS Assay for Inhibitors of CDC-like Kinase 4 (Kinase-Glo Assay) (AID 1770); further: nearly all actives have a fitted effect of over 65% in size
Conditions: recombinant Clk4, Kinase-Glo ATP depletion luminescence; series mostly up to 66.7 µM
Results filed as inconclusive are left out. Active and inactive are the calls of the source. The call rests on the fitted dose curve; in most records, active means well fitted inhibition curve with a large enough effect; inconclusive means small, poorly fitted or top-dose-only effect; inactive means flat fitted curve, though single readings scatter.
Parameter call: string, one of true = active, false = inactive

*Q* Dear colleague, could you share the recorded outcome for "COc1ncc2nc(-c3ccc(F)cc3)c(=O)n(C)c2n1" when you have a moment?
*A* false

*Q* Dear colleague, could you share the recorded outcome for "Cc1cnc(CNc2ncncc2-c2cccnc2)cn1" when you have a moment?
*A* false

*Q* Dear colleague, could you share the recorded outcome for "Cn1c(=O)c(-c2ccccc2)nc2cncnc21" when you have a moment?
*A* false

*Q* Dear colleague, could you share the recorded outcome for "CC(=O)NCCNc1nc(-c2cccnc2)nc2ccccc12" when you have a moment?
*A* true

*Q* Dear colleague, could you share the recorded outcome for "Cc1nc2cnc(Nc3ccccc3)nc2n(CCC#N)c1=O" when you have a moment?
*A* false

*Q* Dear colleague, could you share the recorded outcome for "COc1ccc(-c2nc3cnc(Nc4ccccc4)nc3n(C[C@H]3CCCO3)c2=O)cc1" when you have a moment?
*A* false

###

Target: Dual specificity protein kinase CLK4 (Homo sapiens) (UniProt Q9HAZ1)
Assay: qHTS Assay for Inhibitors of CDC-like Kinase 4 (ADP-FP Assay) (AID 1795); further: nearly all actives have a fitted effect of over 60% in size
Details: Transcreener ADP fluorescence polarization; series mostly up to 50 µM
Results filed as inconclusive are left out. The source made the active and inactive calls. The call rests on the fitted dose curve; in most records, active means well fitted inhibition curve with a large enough effect; inconclusive means small, poorly fitted or top-dose-only effect; inactive means flat fitted curve, though single readings scatter.
Parameter call: string, one of active, inactive

*Q* Dear colleague, could you share the recorded outcome for "CCNc1ncc2nc(-c3ccc(Cl)cc3)c(=O)n(C[C@H]3CCCO3)c2n1" when you have a moment?
*A* inactive

*Q* Dear colleague, could you share the recorded outcome for "N#Cc1cccc(-c2nc3cnc(N4CCOCC4)nc3n(C[C@H]3CCCO3)c2=O)c1" when you have a moment?
*A* inactive

*Q* Dear colleague, could you share the recorded outcome for "Clc1ccccc1-c1ccc2ncnc(NCc3cccnc3)c2c1" when you have a moment?
*A* active

*Q* Dear colleague, could you share the recorded outcome for "COCCNc1ncnc2ccc(-c3ccc(C(=O)N(C)C)cc3)cc12" when you have a moment?
*A* inactive

*Q* Dear colleague, could you share the recorded outcome for "COc1ccc(Oc2ncc3nc(-c4ccc(OC)cc4)c(=O)n(C4CC4)c3n2)cc1" when you have a moment?
*A* inactive

*Q* Dear colleague, could you share the recorded outcome for "CN1CCN(c2ncc3nc(-c4cccs4)c(=O)n(-c4ccccc4)c3n2)CC1" when you have a moment?
*A* inactive

*Q* Dear colleague, could you share the recorded outcome for "CCNc1ncc2nc(C)c(=O)n(Cc3ccc(F)cc3)c2n1" when you have a moment?
*A* inactive

*Q* Dear colleague, could you share the recorded outcome for "CN(C)c1ncc2nc(-c3cn(C)c4ccccc34)c(=O)n(C[C@H]3CCCO3)c2n1" when you have a moment?
*A* inactive

*Q* Dear colleague, could you share the recorded outcome for "CC(=O)NCCNc1cc(-c2ccccc2C)ncn1" when you have a moment?
*A* inactive

*Q* Dear colleague, could you share the recorded outcome for "CN1CCN(c2ncc3nc(-c4ccccc4)c(=O)n(CCc4ccccc4)c3n2)CC1" when you have a moment?
*A* inactive

###

Biological target: Calcium and integrin-binding protein 1 (Homo sapiens)
Assay: Primary qHTS for Identification of Calcium Integrin Binding Protein 1 (CIB1) Competitor (AID 1508620);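 further: GST tagged CIB1 binding a fluorescein labelled alphaIIb integrin peptide tracer; top concentration of the series differs between compounds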
Conditions: CIB1-GST / FITC-alphaIIb peptide fluorescence polarization; series mostly up to 114 µM
Inconclusive results are not listed. Active and inactive are the calls of the source. Calls follow the shape of the dose curve; as a rule, active = well fitted inhibition curve with a large enough effect; inconclusive = small, poorly fitted or top-dose-only effect; inactive = flat fitted curve, though single readings scatter.
OBSERVED PROPERTY: outcome

Consider the following illustrative entries.
{"SMILES STRING": "CC(C)(C)OC(=O)N1CCN(c2ccc(NCc3ccc(-c4ccc(C#N)cc4)nc3)cc2)CC1", "outcome": "inactive"}
{"SMILES STRING": "COc1cc(N2C(=O)c3ccccc3C2=O)c2ncccc2c1", "outcome": "inactive"}
{"SMILES STRING": "COc1cc2nc(Nc3ccccc3)nc(NC3CC3)c2cc1OC", "outcome": "inactive"}
{"SMILES STRING": "Cc1ccc(OCCn2c(CCNC(=O)c3ccccc3N)nc3ccccc32)cc1", "outcome": "inactive"}
{"SMILES STRING": "CC(C)(C)NS(=O)(=O)c1cccc(Nc2nn3c(=O)c4ccccc4nc3s2)c1", "outcome": "inactive"}

So the reported outcome for "O=C(OCC#CCSc1nnc(-c2ccccc2)o1)c1ccc(F)cc1" , on Calcium and integrin-binding protein 1 (Homo sapiens), turned out to be inactive

So the reported outcome for "O=C1c2ccccc2C(=O)N1c1cccc2ncccc12" , on Calcium and integrin-binding protein 1 (Homo sapiens), turned out to be inactive

###

Assay: qHTS Assay for Lipid Storage Modulators (AID 1519)
Details: Drosophila S3 cells, BODIPY lipid droplet/cell ratio, laser cytometry; measured here: lipid channel max response; cells loaded with oleic acid
Results filed as inconclusive are left out.
Use Condition met when the recorded max response is no lower than 9%; use Condition not met when it is lower.

*Q* Form field: max response at least 9%? Entry: "CC(=O)NCCNc1ncnc2ccc(-c3cccc(NS(C)(=O)=O)c3)cc12"
*A* Condition met

*Q* Form field: max response at least 9%? Entry: "CN(C)Cc1ccccc1-c1cc(NC2CC2)ncn1"
*A* Condition met

*Q* Form field: max response at least 9%? Entry: "CN(Cc1ccco1)c1ncncc1-c1ccoc1"
*A* Condition met

*Q* Form field: max response at least 9%? Entry: C[C@H]1CC2[C@@H]3CCC4=CC(=O)C=C[C@]4(C)[C@@]3(F)[C@@H](O)C[C@]2(C)[C@@]1(O)C(=O)CO (stereo partly specified)
*A* Condition not met

*Q* Form field: max response at least 9%? Entry: "Cn1c(=O)c(-c2cccs2)nc2cnc(OCc3ccccc3)nc21"
*A* Condition met

*Q* Form field: max response at least 9%? Entry: "COCCn1c(=O)c(CCc2ccccc2)nc2cnc(N3CCN(C)CC3)nc21"
*A* Condition not met

*Q* Form field: max response at least 9%? Entry: "CC(C)CN1CC[C@@]2(CCCN(S(=O)(=O)c3ccccc3)C2)C1"
*A* Condition met

*Q* Form field: max response at least 9%? Entry: "CN(C)c1ncc2ncc(=O)n(C3CC3)c2n1"
*A* Condition met

*Q* Form field: max response at least 9%? Entry: "Cc1nc2cnc(N3CCN(C)CC3)nc2n(-c2ccccc2)c1=O"
*A* Condition not met

*Q* Form field: max response at least 9%? Entry: "CCNc1ncc2nc(-c3ccc(OC)cc3)c(=O)n(CCOC)c2n1"
*A* Condition met

###

Test: HPAF-II Cancer Cell Toxicity qHTS against the NCATS CANVASS Library (AID 1347346); further: nearly all actives have a fitted effect of over 55% in size
Conditions: HPAF-II viability, CellTiter-Glo ATP luminescence, 72 h; series mostly up to 38.3 µM
Records with an inconclusive call do not appear. The source made the active and inactive calls. The call rests on the fitted dose curve; in most records, active means well fitted cell-killing curve with a large enough effect; inconclusive means small, poorly fitted or top-dose-only effect; inactive means flat fitted curve, though single readings scatter.
Parameter call: string, one of active, inactive

*Q* Dear colleague, could you share the recorded outcome for "C[C@@]12CCC[C@@](C)(C(=O)OP(=O)(O)OC[C@H]3O[C@@H](n4cnc5c(N)ncnc54)[C@H](O)[C@@H]3O)[C@H]1C[C@@H](O)[C@@]13C[C@@H](CC[C@@H]21)[C@](C)(O)C3" when you have a moment?
*A* active

*Q* Dear colleague, could you share the recorded outcome for "C=C[C@@]1(C)CC[C@@H]([C@H](C)C(C)=O)O1" when you have a moment?
*A* inactive

*Q* Dear colleague, could you share the recorded outcome for "C=C[C@]1(C)CC[C@@H]([C@H](C)C(=O)/C=C/C(C)(C)O)O1" when you have a moment?
*A* inactive

*Q* Dear colleague, could you share the recorded outcome for CC(CCC[C@]1(C)C(=O)C=C[C@@]23C[C@]4(C)O[C@@H](C[C@@H]4[C@H]2O)C31)C(=O)O (some centres not stated) when you have a moment?
*A* inactive

*Q* Dear colleague, could you share the recorded outcome for "C=C(C)CC[C@H](Cc1c(O)cc(O)c2c1O[C@H](c1ccc(O)cc1)CC2=O)C(=C)C" when you have a moment?
*A* inactive

*Q* Dear colleague, could you share the recorded outcome for C/C=C1/CN2C3CC1C1C=CC(=O)N4c5ccccc5[C@@]3(C[C@@H]2C2=C[C@H]3C5CC6N(CC[C@@]67c6ccccc6N(C2=O)[C@@H]37)C/C5=C/C)[C@H]14 (some centres not stated) when you have a moment?
*A* active

*Q* Dear colleague, could you share the recorded outcome for C/C=C(/CO)C(=O)O[C@@H]1[C@H](O)[C@@H](C(=O)OC)O[C@@H]2C[C@H]3OC(n4cnc5c(N)ncnc54)[C@H](OC)[C@H]3O[C@@]12O (some centres not stated) when you have a moment?
*A* inactive
